target: ovine COX-2 (Ovis aries, UniProt P79208); assay: COX-2 inhibition enzyme immunoassay; format: biochemical; conditions: COX-1 IC50/COX-2 IC50
Sequence (P79208 17-603): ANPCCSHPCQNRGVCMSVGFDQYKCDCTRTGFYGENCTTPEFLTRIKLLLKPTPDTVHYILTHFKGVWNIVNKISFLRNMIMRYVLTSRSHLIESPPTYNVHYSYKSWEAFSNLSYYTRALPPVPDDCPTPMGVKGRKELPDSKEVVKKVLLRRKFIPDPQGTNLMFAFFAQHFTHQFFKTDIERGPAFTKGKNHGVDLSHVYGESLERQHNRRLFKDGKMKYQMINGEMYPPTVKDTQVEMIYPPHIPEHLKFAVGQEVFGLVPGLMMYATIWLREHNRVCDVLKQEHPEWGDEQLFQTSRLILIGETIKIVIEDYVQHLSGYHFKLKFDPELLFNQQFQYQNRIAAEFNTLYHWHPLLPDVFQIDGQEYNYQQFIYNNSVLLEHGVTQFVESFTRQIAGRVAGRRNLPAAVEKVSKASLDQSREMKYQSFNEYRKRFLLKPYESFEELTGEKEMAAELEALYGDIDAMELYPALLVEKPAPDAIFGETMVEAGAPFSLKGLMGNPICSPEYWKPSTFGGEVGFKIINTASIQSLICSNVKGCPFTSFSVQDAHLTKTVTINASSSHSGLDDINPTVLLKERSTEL
parameter.measured: Selectivity index (SI)
Answer as a number with no unit attached.

Completed entries (count: 4):
compound	parameter.measured	recorded.measurement
N#CCC(=O)NN=Cc1coc2c(ccc3ccccc32)c1=O	Selectivity index (SI)	84.3
CC(=Nn1cc(C(=O)c2ccc3ccccc3c2O)cc(C#N)c1=O)c1cc2ccccc2oc1=O	Selectivity index (SI)	111.3
O=C(C1=CNC(=S)NN=C1)c1ccc2ccccc2c1O	Selectivity index (SI)	588.6
Cc1ccc(-n2cc(C(=O)c3ccc4ccccc4c3O)cc(C#N)c2=O)cc1	Selectivity index (SI)	76.7

We next turn to a different compound, shown below.
Query block: For Cc1c(N=Cc2coc3c(ccc4ccccc43)c2=O)c(=O)n(-c2ccccc2)n1C [Compound 12a] , what is its reported Selectivity index (SI)?
Result block: 49.5
